Numbers sourced from paper PMC9416004.

- protocol: in vitro
- test settings: human
// reported CC50 per item

Record `CC(C)(C)OC(=O)N[C@@H](Cc1ccc(F)cc1)C(=O)N(Cc1ccccc1)C1(C(=O)NCc2ccccc2)CCN(Cc2ccccc2)CC1` , field CC50: > 100 µM

###

- Tested on: HCoV-229E
- protocol: Cytopathic effect (CPE) reduction assay with HCoV-229E in HEL cells
- Type: cell-based, human coronavirus 229E
- test settings: Human coronavirus 229E, 120 h; HCoV-229E-infected HEL cells; protection against virus-induced CPE by MTS cell viability assay; five days at 35 °C; read-out: Antiviral EC50 MTS
quantity measured: EC50

• COC(=O)C[C@H](NC(=O)OC(C)(C)C)C(=O)N(Cc1ccc(F)cc1)C1(C(=O)NCc2ccccc2)CCN(Cc2cccc(F)c2)CC1 [Compound 9] = > 100 µM
• COC(=O)C[C@H](NC(=O)OC(C)(C)C)C(=O)N(Cc1ccc(F)cc1)C(C)(C)C(=O)NCc1ccccc1 [Compound 3] = > 100 µM

With those in mind, consider the next compound.
Record COC(=O)C[C@H](NC(=O)OC(C)(C)C)C(=O)N(Cc1ccc(F)cc1)C1(C(=O)NCc2ccccc2)CCN(c2ccccc2)CC1 [Compound 7] , field EC50: > 100 µM

###

- Tested on: human embryonic lung (HEL) fibroblast cells
- test settings: mock-infected HEL cells; microscopically visible alterations in cell morphology
// reported Cytotoxicity MCC (minimal cytotoxic concentration) per item

Reference set, count: 8
• CC(C)(C)OC(=O)NC(Cc1ccccc1)C(=O)N(Cc1ccccc1)C1(C(=O)NCc2ccccc2)CCN(Cc2ccc(F)cc2)CC1 (stereo not shown) = ≥100 µM
• CC(C)(C)OC(=O)N[C@@H](Cc1c[nH]c2ccccc12)C(=O)N(Cc1ccccc1)C1(C(=O)NCc2ccccc2)CCN(Cc2ccccc2)CC1 = >100 µM
• CC(C)(C)OC(=O)N[C@@H](Cc1ccc(O)cc1)C(=O)N(Cc1ccccc1)C1(C(=O)NCc2ccccc2)CCN(Cc2ccccc2)CC1 = >100 µM
• COC(=O)CNC(=O)C1(N(Cc2ccccc2)C(=O)[C@H](CC(=O)OC)NC(=O)OC(C)(C)C)CCN(Cc2ccccc2)CC1 = >100 µM
• COC(=O)C[C@H](NC(=O)OC(C)(C)C)C(=O)N(Cc1ccccc1)C1(C(=O)NCc2ccccc2)CCN(Cc2ccccc2)CC1 = >100 µM
• CC(C)(C)OC(=O)N[C@@H](CC(=O)O)C(=O)N(Cc1ccccc1)C1(C(=O)NCc2ccccc2)CCN(Cc2ccccc2)CC1 = >100 µM
• COC(=O)C[C@H](N)C(=O)N(Cc1ccccc1)C1(C(=O)NCc2ccccc2)CCN(Cc2ccccc2)CC1 = >100 µM
• COC(=O)C[C@H](NC(=O)OC(C)(C)C)C(=O)N(Cc1ccccc1)C1(C(=O)NC(C)(C)C)CCN(Cc2ccccc2)CC1 = >100 µM

Measured Cytotoxicity MCC (minimal cytotoxic concentration) for this entry `CC(C)(C)OC(=O)N[C@@H](CC(N)=O)C(=O)N(Cc1ccc(F)cc1)C1(C(=O)NCc2ccccc2)CCN(Cc2ccccc2)CC1` on human embryonic lung (HEL) fibroblast cells: >100 µM

Measured Cytotoxicity MCC (minimal cytotoxic concentration) for this entry CC(C)(C)OC(=O)NC(Cc1ccccc1)C(=O)N(Cc1ccccc1)C1(C(=O)NCc2ccccc2)CCN(Cc2ccc([N+](=O)[O-])cc2)CC1 (stereo not shown) on human embryonic lung (HEL) fibroblast cells: ≥100 µM

###

- Tested on: HCoV-229E
- protocol: Cytopathic effect (CPE) reduction assay with HCoV-229E in HEL cells
- Format: cell-based, human coronavirus 229E
- test settings: Human coronavirus 229E, 120 h; HCoV-229E-infected HEL cells; protection against virus-induced CPE by microscopic scoring; five days at 35 °C; read-out: Antiviral EC50 Microscopy
quantity measured: pEC50
Interpret pEC50 as the negative base-10 log of the concentration measured in mol/L.

• COc1ccc(CC(NC(=O)OC(C)(C)C)C(=O)N(Cc2ccccc2)C2(C(=O)NCc3ccccc3)CCN(Cc3ccccc3)CC2)cc1 (stereo not drawn) [Compound 51] = 5.09
• COC(=O)C[C@H](NC(=O)OCc1ccccc1)C(=O)N(Cc1ccccc1)C1(C(=O)NCc2ccccc2)CCN(CCc2ccc(C)cc2)CC1 [Compound 54] = 5.00

With those in mind, consider the next molecule.
Record CC(C)(C)OC(=O)N[C@@H](CC(N)=O)C(=O)N(Cc1ccccc1)C1(C(=O)NCc2ccccc2)CCN(Cc2ccccc2)CC1 [Compound 42] , field pEC50: 4.89

###

- protocol: in vitro
- test settings: human
// reported log10 of CC50 per item
Note the log scale: values are log10 of CC50 expressed in µM.

Reference set, count: 5
• COC(=O)C[C@H](NC(=O)OCc1ccccc1)C(=O)N(C1CC1)C1(C(=O)NCc2ccccc2)CCN(Cc2ccccc2)CC1 = 0.56
• COC(=O)C[C@H](NC(=O)OC(C)(C)C)C(=O)N(Cc1ccc(F)cc1)C1(C(=O)NC(C)(C)C)CCN(Cc2ccccc2)CC1 = 1.89
• CC(C)(C)OC(=O)N[C@@H](Cc1ccccc1)C(=O)N(Cc1ccc(F)cc1)C1(C(=O)NCc2ccccc2)CCN(Cc2ccccc2)CC1 = 0.64
• CC(C)(C)OC(=O)N[C@@H](Cc1ccccc1)C(=O)N(Cc1ccccc1)C1(C(=O)NCc2ccccc2)CCN(Cc2ccccc2)CC1 = 1.88
• COC(=O)CC[C@H](NC(=O)OC(C)(C)C)C(=O)N(Cc1ccc(F)cc1)C1(C(=O)NCc2ccccc2)CCN(Cc2ccccc2)CC1 = 1.70

With those in mind, consider the next molecule.
Record `CC(C)(C)OC(=O)N[C@@H](CC(N)=O)C(=O)N(Cc1ccccc1)C1(C(=O)NCc2ccccc2)CCN(Cc2ccccc2)CC1` , field log10 of CC50: 1.60
